Source of measurements: patent US20020052323A1

Biological target: caspase 1 (Homo sapiens, UniProt P29466)
Sequence (P29466 120-297 limits assumed, species assumed): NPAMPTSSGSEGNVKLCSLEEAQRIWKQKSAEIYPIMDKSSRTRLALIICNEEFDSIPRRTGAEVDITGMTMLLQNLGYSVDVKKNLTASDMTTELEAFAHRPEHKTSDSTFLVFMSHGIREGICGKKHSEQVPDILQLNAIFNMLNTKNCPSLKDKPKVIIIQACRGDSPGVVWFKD
Sequence (P29466 317-404 limits assumed, species assumed): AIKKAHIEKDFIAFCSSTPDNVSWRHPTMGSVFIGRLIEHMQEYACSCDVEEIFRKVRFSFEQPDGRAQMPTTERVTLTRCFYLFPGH
Assay: Caspase inhibition assay, AcYVAD-AFC substrate
Assay type: biochemical
Details: Table 5; read-out: CASP-1 IC50
endpoint_label: IC50 (µM)

- compound: "COC(=O)CC(NC(=O)C(NC(=O)c1ccc2ccccc2n1)C(C)C)C(=O)COc1ccccc1C(=O)O (centres unmarked) [Q-VD(OMe)-SA]"
  endpoint_label: "IC50"
  unit_tag: "µM"
  reported_value: 1.43
- compound: "COC(=O)CC(NC(=O)C(NC(=O)c1ccc2ccccc2n1)C(C)C)C(=O)COc1cc(N)ccc1C(=O)O (centres unmarked) [Q-VD(OMe)-ASA]"
  endpoint_label: "IC50"
  unit_tag: "µM"
  reported_value: 1.5

====

Molecular target: caspase 1 (Homo sapiens)
Experiment: Caspase inhibition assay, AcYVAD-AFC substrate
Assay type: biochemical
Settings: from figure, antilog of log concentration; read-out: IC50 caspase 1
pIC50: −log10 of the molar value. Where a name gives a salt, the structure may show the parent alone.
endpoint_label: pIC50

- compound: "COC(=O)C[C@H](NC(=O)[C@@H](NC(=O)NCCc1c[nH]c2ccc(OC)cc12)C(C)C)C(=O)COc1c(F)cccc1F"
  reported_value: "~6.86"
- compound: "COC(=O)CC(NC(=O)[C@@H](NC(=O)[C@@H](N)Cc1c[nH]c2ccccc12)C(C)C)C(=O)COc1ccccc1 (stereo partly shown) [TFA Trp-V-D(OMe)—CH2—O—Ph TFA]"
  reported_value: "~6.20"
- compound: "COC(=O)CC(NC(=O)C(CC(C)C)NC(=O)c1ccc2ccccc2n1)C(=O)COc1ccccc1 (stereo not shown)"
  reported_value: "~6.03"
- compound: "CC(C)C[C@H](NC(=O)c1ccc2ccccc2n1)C(=O)N[C@@H](CC(=O)O)C(=O)COc1ccccc1"
  reported_value: "~6.26"
- compound: "COC(=O)CC(NC(=O)C(NC(=O)c1ccc2ccccc2n1)C(C)C)C(=O)COc1ccccc1C(=O)O (stereo not shown)"
  reported_value: "~5.84"
- compound: "CC(C)[C@H](NC(=O)c1ccc2ccccc2n1)C(=O)N[C@@H](CC(=O)O)C(=O)COc1ccccc1"
  reported_value: "~7.30"
- compound: "COC(=O)CC(NC(=O)C(NC(=O)c1ccc2ccccc2n1)C(C)C)C(=O)COc1cc(N)ccc1C(=O)O (stereo not shown)"
  reported_value: "~5.84"

====

Molecular target: caspase 3 (Homo sapiens, UniProt P42574)
Sequence (P42574 29-175 limits assumed, species assumed): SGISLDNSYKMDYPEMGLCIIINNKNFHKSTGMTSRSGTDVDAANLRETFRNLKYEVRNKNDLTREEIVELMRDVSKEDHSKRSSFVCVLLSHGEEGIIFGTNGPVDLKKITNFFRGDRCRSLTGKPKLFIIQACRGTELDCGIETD
Sequence (P42574 176-277 limits assumed, species assumed): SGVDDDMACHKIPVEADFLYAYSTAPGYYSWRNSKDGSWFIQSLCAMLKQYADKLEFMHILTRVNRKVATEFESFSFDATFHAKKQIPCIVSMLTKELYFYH
Assay: Caspase inhibition assay, AcDEVD-AFC substrate
Format: biochemical
Details: from figure, antilog of log concentration; read-out: IC50 caspase 3
endpoint_label: IC50

- smiles: "CC(C)C[C@H](NC(=O)c1ccc2ccccc2n1)C(=O)N[C@@H](CC(=O)O)C(=O)COc1ccccc1"
  endpoint_label: "IC50"
  reported_value: "~50 nM"

====

Tested on: WEHI 231 cells
Assay: TUNEL analysis, inhibitor alone (toxicity control)
Type: cell-based, murine
Details: 20 μM Inh alone, no ActD
# Lookup of reported % non-viable cells, inhibitor alone keyed by entry
endpoint_label: % non-viable cells, inhibitor alone (%)

- molecule: "COC(=O)CC(NC(=O)CCNC(=O)c1ccc2ccccc2n1)C(=O)CF (stereo not drawn)"
  measurement_target: "WEHI 231 cells"
  endpoint_label: "% non-viable cells, inhibitor alone"
  reported_value: 5
- molecule: "COC(=O)CC(NC(=O)C(C)NC(=O)c1ccc2ccccc2n1)C(=O)CF (stereo not drawn)"
  measurement_target: "WEHI 231 cells"
  endpoint_label: "% non-viable cells, inhibitor alone"
  reported_value: 6
- molecule: "COC(=O)CC(NC(=O)C(NC(=O)c1ccc2ccccc2n1)C(C)C)C(=O)COc1c(F)cccc1F (stereo not drawn)"
  measurement_target: "WEHI 231 cells"
  endpoint_label: "% non-viable cells, inhibitor alone"
  reported_value: 2

====

Biological target: caspase 8 (Homo sapiens)
Sequence (Q14790 217-374 limits assumed, species assumed): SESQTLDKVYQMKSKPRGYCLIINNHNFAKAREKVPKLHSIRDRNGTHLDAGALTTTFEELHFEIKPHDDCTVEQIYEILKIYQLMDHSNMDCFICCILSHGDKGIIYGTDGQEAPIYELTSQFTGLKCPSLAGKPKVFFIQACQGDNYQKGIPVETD
Sequence (Q14790 385-479 limits assumed, species assumed): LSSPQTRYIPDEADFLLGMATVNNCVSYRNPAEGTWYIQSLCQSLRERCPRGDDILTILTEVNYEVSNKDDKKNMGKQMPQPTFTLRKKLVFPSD
Assay: Caspase inhibition assay, AcIETD-AFC substrate
Type: biochemical
Conditions: from figure; read-out: IC50 caspase 8
Description: The determination of the IC50/μm was performed according to Gary Johnson, 9401 James Avenue, Suite No. 155, Bloomington, Minn. 55431. Caspase Inhibition Assay:—Caspases are diluted in caspase buffer, 0.1 M HEPES, 10% sucrose 0.1% CHAPS and 10 mM DTT, pH 7.5. […] The fluorometer is set to 400 nm excitation and 505 nm emission. The enzyme-inhibitor-substrate is allowed to incubate at for an additional twenty min. and the response is read as fluorescence units vs inhibitor concentration. […]

- compound: "COC(=O)CC(NC(=O)C(NC(=O)c1ccc2ccccc2n1)C(C)C)C(=O)COc1cc(N)ccc1C(=O)O (stereo not shown)"
  IC50: "~5.82 µM"
